pIC50: −log10 of the molar value.
Consider the following pIC50 values measured on VHR (Homo sapiens).
Sequence (P51452 whole entry): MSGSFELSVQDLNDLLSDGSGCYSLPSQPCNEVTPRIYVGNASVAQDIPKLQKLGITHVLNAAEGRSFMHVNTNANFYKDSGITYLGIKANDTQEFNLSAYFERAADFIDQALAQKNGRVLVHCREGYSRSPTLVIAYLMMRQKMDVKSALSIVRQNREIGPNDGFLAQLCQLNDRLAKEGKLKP

compound: O=C(C(c1ccccc1)S(=O)(=O)O)N1CCCC2CCCCC21 (stereo not drawn)
pIC50: < 3.70
//
compound: O=C(Nc1ccc2nc(C(F)(F)F)[nH]c2c1)C(c1ccccc1)S(=O)(=O)O (stereo not drawn)
pIC50: < 3.70
//
compound: O=C(Nc1ccc(OCc2ccccc2)c(Cl)c1)C(c1ccccc1)S(=O)(=O)O (stereo not drawn)
pIC50: < 3.70
//
compound: O=C(NCCNC(=O)C(c1ccccc1)S(=O)(=O)O)c1cccc(C(=O)c2ccccc2)c1 (stereo not drawn)
pIC50: < 3.70
//
compound: O=C(Nc1ccc(-c2ccccc2)cc1)C(c1ccccc1)S(=O)(=O)O (stereo not drawn)
pIC50: < 3.70
//
compound: O=C(Nc1ccc(N2CCOCC2)cc1)C(c1ccccc1)S(=O)(=O)O (stereo not drawn)
pIC50: < 3.70
//
compound: O=C(C(c1ccccc1)S(=O)(=O)O)N1CCC(c2ccc(Cl)c(Cl)c2)CC1 (stereo not drawn)
pIC50: 4.00
//
compound: Cc1c(Br)cc(NC(=O)CS(=O)(=O)O)cc1Br
pIC50: < 4.00
//
compound: O=C(Nc1cccc(OCc2ccccc2)c1)C(=O)Nc1ccccc1NC(=O)C(c1ccccc1)S(=O)(=O)O (stereo not drawn)
pIC50: < 4.30
